B1: DLC1 (parent)
chain: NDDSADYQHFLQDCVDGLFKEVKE

variants of: B1; test: protein stability index of a GFP-peptide fusion (GPS, HEK-293T) (PSI 1-6); higher = more stable; conditions: c terminus: a fixed tail appended;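 further: lentivirally expressed fusions sorted by FACS into six bins by GFP to DsRed ratio, PSI derived from sequencing read proportions per bin multiplied by bin number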
Below: a set of entries, each annotated with reported protein stability index.

Study these solved cases before continuing.
> print(dat)
   sequence.variant  endpoint.result
1               D3I             2.19
2              F10V             1.42
3               N1C             2.24
4               D2K             2.11
5              F10A             2.08

**Query** Name the recorded protein stability index of the variant listed here: G17M
**Result** 2.18

**Query** Name the recorded protein stability index of the variant listed here: V22Y
**Result** 4.05
